Every entry's value here was drawn from patent US12297285B2.

# Test system: primary human hepatocytes
# RUN_DESCRIPTION: IRES screening, Gaussia luciferase from LNP-oRNA (Table 27)
# EXPERIMENTAL_CONTEXT: Gaussia luciferase luminescence in supernatant 48 hours after LNP-oRNA transfection, normalized to control (caprine kobuvirus IRES)
ENDPOINT_NAME: [Mod] PHH Fold Change

Would you please look over these solved cases?
# COMPOUND, [Mod] PHH Fold Change
records = [
    ("CC(C)=CCCC(C)CC(=O)OCCCCCCC(CCCCCCOC(=O)CC(C)CCC=C(C)C)OC(=O)CCCn1ccnc1 (stereo not drawn) [Lipid 10a-118]", "0.6669 Fold Change"),
    ("CCCCCCCCCOC(=O)CCCCCCCN(CCCCCCCC(=O)OC(CCCCCCCC)CCCCCCCC)CCn1ccnc1 [Lipid 10a-132]", "0.5643 Fold Change"),
    ("CCCCC/C=C\\C/C=C\\CCCCCCCC(=O)OCC(COC(=O)CCC(OCCCCCCCC)OCCCCCCCC)COC(=O)OCCCn1ccnc1C (stereo not drawn) [Lipid 10a-141]", "0.547 Fold Change"),
]

For the record CC(C)=CCCC(C)CC(=O)OCCCCCCN(CCCCCCOC(=O)CC(C)CCC=C(C)C)CCCn1ccnc1C (stereo not drawn) [Lipid 10a-125] , what value of [Mod] PHH Fold Change is listed for primary human hepatocytes?
0.6492 Fold Change

For the record CC(C)=CCC/C(C)=C/C(=O)OCCCCCCC(CCCCCCOC(=O)/C=C(\C)CCC=C(C)C)OC(=O)CCCn1ccnc1C (stereo not drawn) [Lipid 10a-121] , what value of [Mod] PHH Fold Change is listed for primary human hepatocytes?
0.9977 Fold Change

For the record Cc1nccn1CCCN(CCCCCCOC(=O)CC(C)CCCC(C)C)CCCCCCOC(=O)CC(C)CCCC(C)C (stereo not drawn) [Lipid 10a-123] , what value of [Mod] PHH Fold Change is listed for primary human hepatocytes?
0.638 Fold Change

For the record Cc1nccn1CCCC(=O)OC(CCCCCCOC(=O)CC(C)CCCC(C)C)CCCCCCOC(=O)CC(C)CCCC(C)C (stereo not drawn) [Lipid 10a-117] , what value of [Mod] PHH Fold Change is listed for primary human hepatocytes?
0.4258 Fold Change

---

molecules and their reported [Mod] Fold Change Myo
# Test system: primary human skeletal myotubes
# RUN_DESCRIPTION: IRES screening, Gaussia luciferase from LNP-oRNA (Table 27)
# EXPERIMENTAL_CONTEXT: Gaussia luciferase luminescence in supernatant 48 hours after LNP-oRNA transfection, normalized to control (caprine kobuvirus IRES)
Just so you know, I need the unit written after the number.

Would you please look over these solved cases?
# MOLECULE, DATA_VALUE
rows = [
    ("Cc1nccn1CCCN(CCCCCCOC(=O)CC(C)CCCC(C)C)CCCCCCOC(=O)CC(C)CCCC(C)C (stereo not shown) [Lipid 10a-123]", "0.03971 Fold Change"),
    ("Cc1nccn1CCCN(CCCCCCCC(=O)OCC(CCC(C)C)C(C)C)CCCCCCCC(=O)OCC(CCC(C)C)C(C)C (stereo not shown) [Lipid 10a-99]", "0.1639 Fold Change"),
    ("CCCCC(CC)CCC(=O)OCCCCCCN(CCCCCCOC(=O)CCC(CC)CCCC)CCCn1ccnc1 (stereo not shown) [Lipid 10a-109]", "0.2492 Fold Change"),
    ("Cc1nccn1CCCC(=O)OC(CCCCCCCC(=O)OCCC(C)CCC(C)C)CCCCCCCC(=O)OCCC(C)CCC(C)C (stereo not shown) [Lipid 10a-103]", "0.04558 Fold Change"),
]

Given CCCCCCCCCN(CCn1ccnc1C)C(CCCCCCCCC(=O)OCC(CCCC)CCCCCC)CCCCCCCCC(=O)OCC(CCCC)CCCCCC (stereo not shown) [Lipid 10a-145] , state its recorded [Mod] Fold Change Myo.
0.03927 Fold Change

Given CCCCC(C)CCC(=O)OCCCCCCC(CCCCCCOC(=O)CCC(C)CCCC)OC(=O)CCCn1ccnc1C (stereo not shown) [Lipid 10a-115] , state its recorded [Mod] Fold Change Myo.
0.05074 Fold Change

Given CCCCCCCCC(CC)OC(=O)CCCCCCCN(CCCCCCCC(=O)OC(CCCCCCCC)CCCCCCCC)CCCn1ccnc1C (stereo not shown) [Lipid 10a-138] , state its recorded [Mod] Fold Change Myo.
0.3723 Fold Change

---

# Tested on: primary human skeletal myotubes
# RUN_DESCRIPTION: IRES screening, Gaussia luciferase from LNP-oRNA (Table 27)
# EXPERIMENTAL_CONTEXT: Gaussia luciferase luminescence in supernatant 48 hours after LNP-oRNA transfection, normalized to control (caprine kobuvirus IRES)
# if value of [Mod] Fold Change Myo reaches 0.2 Fold Change, tag 1; if it stays below, tag -1

Example results:
# COMPOUND, CLASSIFICATION
measured = [
    ("CC(C)=CCC/C(C)=C/C(=O)OCCCCCCN(CCCCCCOC(=O)/C=C(\\C)CCC=C(C)C)CCCn1ccnc1C [Lipid 10a-127]", 1),
    ("Cc1nccn1CCCC(=O)OC(CCCCCCCC(=O)OCC(CCC(C)C)C(C)C)CCCCCCCC(=O)OCC(CCC(C)C)C(C)C (stereo not shown) [Lipid 10a-98]", 1),
    ("CCCCC(CC)CCC(=O)OCCCCCCN(CCCCCCOC(=O)CCC(CC)CCCC)CCCn1ccnc1C (stereo not shown) [Lipid 10a-110]", 1),
    ("CC(C)CCC(C)CCOC(=O)CCCCCCCC(CCCCCCCC(=O)OCCC(C)CCC(C)C)OC(=O)CCCn1ccnc1 (stereo not shown) [Lipid 10a-101]", 1),
    ("CCCCCCCCC(CCCCCC)C(=O)OCCCCCCN(CCCCCCOC(=O)C(CCCCCC)CCCCCCCC)Cc1nccn1C (stereo not shown) [Lipid 10a-128]", 1),
]

Dear colleague, could you confirm whether CC(C)=CCC/C(C)=C/C(=O)OCCCCCCC(CCCCCCOC(=O)/C=C(\C)CCC=C(C)C)OC(=O)CCCn1ccnc1 (stereo not shown) [Lipid 10a-120] has [Mod] Fold Change Myo at or above 0.2 Fold Change?
1

Dear colleague, could you confirm whether CCCCCCCCCN(CCn1ccnc1)C(CCCCCCCCC(=O)OCC(CCCC)CCCCCC)CCCCCCCCC(=O)OCC(CCCC)CCCCCC (stereo not shown) [Lipid 10a-146] has [Mod] Fold Change Myo at or above 0.2 Fold Change?
-1

Dear colleague, could you confirm whether CCCCCCCCCCCCCCN(CCC(C)n1ccnc1)C(CCCCCCCCC(=O)OCC(CCCC)CCCCCC)CCCCCCCCC(=O)OCC(CCCC)CCCCCC (stereo not shown) [Lipid 10a-134] has [Mod] Fold Change Myo at or above 0.2 Fold Change?
-1

Dear colleague, could you confirm whether CCCCC/C=C\C/C=C\CCCCCCCC(=O)OCC(COC(=O)CCC(OCCCCCCCC)OCCCCCCCC)COC(=O)OCCCn1ccnc1C (stereo not shown) [Lipid 10a-141] has [Mod] Fold Change Myo at or above 0.2 Fold Change?
-1

Dear colleague, could you confirm whether CCCCCCCCC(CCCCCC)OCCOC(=O)CCN(CCCn1ccnc1C)CCC(=O)OCCOC(CCCCCC)CCCCCCCC (stereo not shown) [Lipid 10a-143] has [Mod] Fold Change Myo at or above 0.2 Fold Change?
-1

Dear colleague, could you confirm whether CCCCCCCCCOC(=O)CCCCCCCN(CCCCCCCC(=O)OC(CCCCCCCC)CCCCCCCC)Cc1nccn1C [Lipid 10a-133] has [Mod] Fold Change Myo at or above 0.2 Fold Change?
-1

---

# System: primary human skeletal myotubes
# RUN_DESCRIPTION: IRES screening, Gaussia luciferase from LNP-oRNA (Table 27)
# EXPERIMENTAL_CONTEXT: Gaussia luciferase luminescence in supernatant 48 hours after LNP-oRNA transfection, normalized to control (caprine kobuvirus IRES)
# binning rule on [Mod] Fold Change Myo: low: < 0.04 Fold Change; moderate: ≥ 0.04 Fold Change and < 0.2 Fold Change; high: ≥ 0.2 Fold Change

Example results:
# COMPOUND, CLASSIFICATION
rows = [
    ("CC(C)CCC(COC(=O)CCCCCCCC(CCCCCCCC(=O)OCC(CCC(C)C)C(C)C)OC(=O)CCCn1ccnc1)C(C)C (stereo not shown) [Lipid 10a-97]", "high"),
    ("CCCCCCCCCCCCC(O)CN(CCCCCCCC(=O)OC(CCCCCCCC)CCCCCCCC)CCCn1ccnc1C (stereo not shown) [Lipid 10a-150]", "low"),
    ("Cc1nccn1CCCC(=O)OC(CCCCCCCCC(=O)OCCC(C)CC(C)(C)C)CCCCCCCCC(=O)OCCC(C)CC(C)(C)C (stereo not shown) [Lipid 10a-107]", "high"),
    ("CCCCCCCCCN(CCCn1ccnc1)C(CCCCCCCCC(=O)OCC(CCCC)CCCCCC)CCCCCCCCC(=O)OCC(CCCC)CCCCCC (stereo not shown) [Lipid 10a-142]", "low"),
    ("CC(C)=CCC/C(C)=C/C(=O)OCCCCCCN(CCCCCCOC(=O)/C=C(\\C)CCC=C(C)C)CCCn1ccnc1 [Lipid 10a-126]", "moderate"),
    ("CCCCC/C=C\\C/C=C\\CCCCCCCC(=O)OCC(COC(=O)CCC(OCCCCCCCC)OCCCCCCCC)COC(=O)OCCCn1ccnc1 (stereo not shown) [Lipid 10a-140]", "moderate"),
]

Assign a category based on measured [Mod] Fold Change Myo for CC(CCOC(=O)CCCCCCCCC(CCCCCCCCC(=O)OCCC(C)CC(C)(C)C)OC(=O)CCCn1ccnc1)CC(C)(C)C (stereo not shown) [Lipid 10a-105] and give only the class name.
high

Assign a category based on measured [Mod] Fold Change Myo for CCCCCCCCCCCCCCN(Cc1nccn1C)C(CCCCCCCCC(=O)OCC(CCCC)CCCCCC)CCCCCCCCC(=O)OCC(CCCC)CCCCCC (stereo not shown) [Lipid 10a-136] and give only the class name.
moderate
